Each entry below lists one item and its recorded melting point value.

Below, 6 compounds whose answers are already recorded.
{"columns": ["compound", "melting point"],
 "data": [
  ["CCCCOC(=O)[C@H]1CN(c2ccc(N3CCSCC3)cc2)C(=O)O1", "95.5 to 98 °C"],
  ["COc1ccc(C2COc3ccc(-c4nnc(C)o4)cc32)cc1 (stereo unspecified)", "117 to 118 °C"],
  ["Cn1c(=O)c2c(ncn2Cc2noc(CCl)n2)n(C)c1=O", "146 to 148 °C"],
  ["COc1ccc2[nH]c(C(C)=O)cc2c1", "164 to 167 °C"],
  ["CCOC(=O)c1cn(C(C)(C)C)c2nc(NC(=O)c3ccc(C)cc3)sc12", "200 to 201 °C"],
  ["CCCCCCCCCCCCCCCCCCOCC(O)Cn1cnc2c(N)ncnc21 (stereo unspecified)", "151 to 152 °C"]
]}

[Q] Could you share which melting point value was measured for CN(C)C1(c2ccccc2)CCC(CNC(=O)N2CCC(c3c[nH]c4ccc(Cl)cc34)CC2)CC1 (stereo unspecified) ?
[A] 140 to 143 °C

[Q] Could you share which melting point value was measured for "O=C1c2sccc2-n2cnc(Cl)c2[C@@H]2CCCN12" ?
[A] 180 to 183 °C

[Q] Could you share which melting point value was measured for N#Cc1cccc2c1NC(=O)C2c1ncnc2c1cnn2C1CCCC1 (stereo unspecified) ?
[A] 327 to 332 °C

[Q] Could you share which melting point value was measured for "O=C(Nc1ccc(C(=O)N2CCC=Cc3ccccc32)cc1)c1ccccc1Cl" ?
[A] 205 to 207 °C

[Q] Could you share which melting point value was measured for "Nc1ccc2ccc(O)cc2c1" ?
[A] 186 to 188 °C

----------
measurement type: melting point

Below, 6 compounds whose answers are already recorded.
{"columns": ["compound", "melting point"],
 "data": [
  ["COc1ncc(C=O)cc1Br", "94 to 95 °C"],
  ["Cc1cc(NC(=O)C(C)(O)COc2ccc(CCCl)c(F)c2)ccc1[N+](=O)[O-] (stereo unspecified)", "77 to 79 °C"],
  ["CC(=O)Nc1cc(C=CN(C)C)c([N+](=O)[O-])cn1", "193 to 196 °C"],
  ["N#CNC(=S)Nc1cccc([N+](=O)[O-])c1", "> 210 °C"],
  ["Cc1cc2c(C(=O)C3=C(O)C4CCC(C4)C3=O)ccc(S(C)=O)c2o1 (stereo unspecified)", "243 to 244 °C"],
  ["CCN(CC1Cc2ccccc2N1CC)C(=N)N (stereo unspecified)", "230 °C"]
]}

[Q] Could you share which melting point value was measured for "CCCOc1ncc(NC(=O)N(C)C)cc1-c1nc2c(CCC)nn(C)c2c(=O)[nH]1" ?
[A] 219 to 220 °C

[Q] Could you share which melting point value was measured for O=C(O)C(Cc1ccccc1)Cc1ccc([N+](=O)[O-])cc1 (stereo unspecified) ?
[A] 104 to 105 °C

[Q] Could you share which melting point value was measured for "COc1ccc2c(c1)CCn1ncnc1C2=C1CCN(C)CC1" ?
[A] 166 °C

[Q] Could you share which melting point value was measured for "CCCCCCCCCCCCCCCc1cc2ccc(C(=O)O)cc2[nH]1" ?
[A] 140 to 142 °C

[Q] Could you share which melting point value was measured for "COc1cccc(NC(=O)c2cccc([N+](=O)[O-])c2)c1" ?
[A] 120 to 122 °C
